- Tested on: CCRF-CEM
- assay: Cytotoxicity against human CCRF-CEM cells after 96 hrs by MTT assay
- Format: functional, cell-based
pEC50: −log10 of the molar value.

{"smiles_entry": "COc1ccc(-c2[nH]c3ccccc3c2/C=C(\\C#N)S(=O)(=O)c2ccccc2)cc1", "pEC50": 6.52}
{"smiles_entry": "COc1ccc2[nH]c(-c3ccccc3)c(/C=C(\\C#N)S(=O)(=O)c3ccccc3)c2c1", "pEC50": 5.82}
{"smiles_entry": "COCCOC(=O)/C(C#N)=C/c1c(-c2ccccc2)[nH]c2ccccc12", "pEC50": 5.80}
{"smiles_entry": "CCOC(=O)/C(=C\\c1c(-c2ccccc2)[nH]c2ccccc12)C(C)=O", "pEC50": 5.85}
{"smiles_entry": "CCOC(=O)/C(=C/c1c(-c2ccccc2)[nH]c2ccccc12)C(=O)c1ccc([N+](=O)[O-])cc1", "pEC50": 5.74}

====

Listing of entries alongside the reported GI50.
- Tested on: SNB-75
- assay: Growth inhibition of human SNB75 cells after 48 hrs by sulforhodamine B assay
- Format: functional
- setup_conditions: SNB-75, 48 h

{"smiles_entry": "COC(=O)/C(=C\\c1c(-c2ccccc2)[nH]c2ccccc12)S(C)(=O)=O", "readout_unit": "µM", "GI50": 2.3}
{"smiles_entry": "COc1ccc(-c2[nH]c3ccc(OC)cc3c2C=C(C#N)C#N)cc1", "readout_unit": "µM", "GI50": 0.593}
{"smiles_entry": "COc1ccc(-c2[nH]c3ccccc3c2/C=C(\\C#N)S(=O)(=O)c2ccccc2)cc1", "readout_unit": "µM", "GI50": 0.379}
{"smiles_entry": "COc1ccc(-c2[nH]c3ccc(OC)cc3c2/C=C(\\C#N)S(=O)(=O)c2ccccc2)cc1", "readout_unit": "µM", "GI50": 0.612}
{"smiles_entry": "COC(=O)/C(=C\\c1c(C)[nH]c2ccccc12)S(=O)(=O)c1ccccc1", "readout_unit": "µM", "GI50": 3.1}
{"smiles_entry": "COc1ccc(-c2[nH]c3ccccc3c2C=C(C#N)C#N)cc1", "readout_unit": "µM", "GI50": 0.418}
{"smiles_entry": "COc1ccc2[nH]c(-c3ccccc3)c(C=C(C#N)C#N)c2c1", "readout_unit": "µM", "GI50": 2.8}
{"smiles_entry": "CCOC(=O)C(=Cc1c(-c2ccccc2)[nH]c2ccccc12)C(=O)OCC", "readout_unit": "µM", "GI50": 7}
{"smiles_entry": "N#C/C(=C\\c1c(-c2ccccc2)[nH]c2ccccc12)C(=O)c1ccccc1", "readout_unit": "µM", "GI50": 3.2}
{"smiles_entry": "N#CC(C#N)=Cc1c(-c2ccccc2)[nH]c2ccccc12", "readout_unit": "µM", "GI50": 2}
{"smiles_entry": "O=C(/C(=C\\c1c(-c2ccccc2)[nH]c2ccccc12)S(=O)(=O)c1ccccc1)c1ccccc1", "readout_unit": "µM", "GI50": 10.1}
{"smiles_entry": "CC(=O)/C(=C\\c1c(-c2ccccc2)[nH]c2ccccc12)S(C)(=O)=O", "readout_unit": "µM", "GI50": 1.5}
{"smiles_entry": "COc1ccc2[nH]c(-c3ccccc3)c(/C=C(\\C#N)S(=O)(=O)c3ccccc3)c2c1", "readout_unit": "µM", "GI50": 5.9}
{"smiles_entry": "CC(=O)/C(=C\\c1c(-c2ccccc2)[nH]c2ccccc12)S(=O)(=O)c1ccccc1", "readout_unit": "µM", "GI50": 1.7}
{"smiles_entry": "N#C/C(=C\\c1c(-c2ccccc2)[nH]c2ccccc12)S(=O)(=O)c1ccccc1", "readout_unit": "µM", "GI50": 1.7}

====

- Tested on: OVCAR-5
- assay: Growth inhibition of human OVCAR5 cells after 48 hrs by sulforhodamine B assay
- Type: functional
- setup_conditions: OVCAR-5, 48 h

{"smiles_entry": "COc1ccc2[nH]c(-c3ccccc3)c(C=C(C#N)C#N)c2c1", "readout_unit": "µM", "GI50": 44.2}
{"smiles_entry": "N#CC(C#N)=Cc1c(-c2ccccc2)[nH]c2ccccc12", "readout_unit": "µM", "GI50": 19.7}
{"smiles_entry": "N#C/C(=C\\c1c(-c2ccccc2)[nH]c2ccccc12)S(=O)(=O)c1ccccc1", "readout_unit": "µM", "GI50": 13.9}
{"smiles_entry": "COc1ccc(-c2[nH]c3ccccc3c2/C=C(\\C#N)S(=O)(=O)c2ccccc2)cc1", "readout_unit": "µM", "GI50": 1.9}
{"smiles_entry": "COC(=O)/C(=C\\c1c(-c2ccccc2)[nH]c2ccccc12)S(C)(=O)=O", "readout_unit": "µM", "GI50": 19.6}

====

- Tested on: MRC5
- assay: Cytotoxicity against human MRC5 cells after 96 hrs by MTT assay
- Assay type: cell-based
- setup_conditions: MRC5, 96 h
observed_property: EC50 (µM)

{"smiles_entry": "CCOC(=O)/C(=C/c1c(-c2ccccc2)[nH]c2ccccc12)C(=O)c1ccc([N+](=O)[O-])cc1", "system_name": "MRC5", "reported_relation": ">", "numeric_readout": 100}
{"smiles_entry": "O=C(C(=Cc1c(-c2ccccc2)[nH]c2ccccc12)C(=O)c1ccccc1)c1ccccc1", "system_name": "MRC5", "reported_relation": ">", "numeric_readout": 100}
{"smiles_entry": "CCOC(=O)/C(=C/c1c(-c2ccccc2)[nH]c2ccccc12)C(=O)c1ccccc1", "system_name": "MRC5", "reported_relation": ">", "numeric_readout": 100}
{"smiles_entry": "COc1ccc(-c2[nH]c3ccc(OC)cc3c2/C=C(\\C#N)S(=O)(=O)c2ccccc2)cc1", "system_name": "MRC5", "reported_relation": "=", "numeric_readout": 22}
{"smiles_entry": "COc1ccc(-c2[nH]c3ccccc3c2/C=C(\\C#N)S(=O)(=O)c2ccccc2)cc1", "system_name": "MRC5", "reported_relation": "=", "numeric_readout": 73}
{"smiles_entry": "COc1cccc2c1C(=O)c1c(O)c3c(c(O)c1C2=O)C[C@@](O)(C(=O)CO)C[C@@H]3O[C@H]1C[C@H](N)[C@H](O)[C@H](C)O1", "system_name": "MRC5", "reported_relation": "=", "numeric_readout": 0.3}
{"smiles_entry": "N#C/C(=C\\c1c(-c2ccccc2)[nH]c2ccccc12)C(=O)c1cccs1", "system_name": "MRC5", "reported_relation": "=", "numeric_readout": 20}
{"smiles_entry": "O=C(/C(=C\\c1c(-c2ccccc2)[nH]c2ccccc12)C(=O)C(F)(F)F)c1ccco1", "system_name": "MRC5", "reported_relation": "=", "numeric_readout": 12}

====

Entries and their GI50
- Tested on: ACHN
- assay: Growth inhibition of human ACHN cells after 48 hrs by sulforhodamine B assay
- Type: functional
observed_property: GI50 (µM)

{"smiles_entry": "N#C/C(=C\\c1c(-c2ccccc2)[nH]c2ccccc12)S(=O)(=O)c1ccccc1", "system_name": "ACHN", "observed_property": "GI50", "numeric_readout": 7}
{"smiles_entry": "CC(=O)/C(=C\\c1c(-c2ccccc2)[nH]c2ccccc12)S(=O)(=O)c1ccccc1", "system_name": "ACHN", "observed_property": "GI50", "numeric_readout": 1.8}
{"smiles_entry": "COC(=O)/C(=C\\c1c(C)[nH]c2ccccc12)S(=O)(=O)c1ccccc1", "system_name": "ACHN", "observed_property": "GI50", "numeric_readout": 5.5}
{"smiles_entry": "N#C/C(=C\\c1c(-c2ccccc2)[nH]c2ccccc12)C(=O)c1ccccc1", "system_name": "ACHN", "observed_property": "GI50", "numeric_readout": 7.2}
{"smiles_entry": "COc1ccc(-c2[nH]c3ccccc3c2/C=C(\\C#N)S(=O)(=O)c2ccccc2)cc1", "system_name": "ACHN", "observed_property": "GI50", "numeric_readout": 1.9}
{"smiles_entry": "CC(=O)/C(=C\\c1c(-c2ccccc2)[nH]c2ccccc12)S(C)(=O)=O", "system_name": "ACHN", "observed_property": "GI50", "numeric_readout": 5.8}
{"smiles_entry": "CCOC(=O)C(=Cc1c(-c2ccccc2)[nH]c2ccccc12)C(=O)OCC", "system_name": "ACHN", "observed_property": "GI50", "numeric_readout": 4.4}
{"smiles_entry": "N#CC(C#N)=Cc1c(-c2ccccc2)[nH]c2ccccc12", "system_name": "ACHN", "observed_property": "GI50", "numeric_readout": 7.3}
{"smiles_entry": "COc1ccc2[nH]c(-c3ccccc3)c(C=C(C#N)C#N)c2c1", "system_name": "ACHN", "observed_property": "GI50", "numeric_readout": 7.4}
{"smiles_entry": "COc1ccc2[nH]c(-c3ccccc3)c(/C=C(\\C#N)S(=O)(=O)c3ccccc3)c2c1", "system_name": "ACHN", "observed_property": "GI50", "numeric_readout": 12.9}
{"smiles_entry": "O=C(/C(=C\\c1c(-c2ccccc2)[nH]c2ccccc12)S(=O)(=O)c1ccccc1)c1ccccc1", "system_name": "ACHN", "observed_property": "GI50", "numeric_readout": 6.7}
{"smiles_entry": "COC(=O)/C(=C\\c1c(-c2ccccc2)[nH]c2ccccc12)S(C)(=O)=O", "system_name": "ACHN", "observed_property": "GI50", "numeric_readout": 9.2}
{"smiles_entry": "COc1ccc(-c2[nH]c3ccccc3c2C=C(C#N)C#N)cc1", "system_name": "ACHN", "observed_property": "GI50", "numeric_readout": 2.3}
{"smiles_entry": "COc1ccc(-c2[nH]c3ccc(OC)cc3c2/C=C(\\C#N)S(=O)(=O)c2ccccc2)cc1", "system_name": "ACHN", "observed_property": "GI50", "numeric_readout": 1.8}
